target-of-assay: T1, cynomolgus SIRPα extracellular domain + His-tag (XP_015313155) (cynomolgus monkey)
T1 construct: also called CySIRPα XP_015313155; cynoSIRPα
T1 chain: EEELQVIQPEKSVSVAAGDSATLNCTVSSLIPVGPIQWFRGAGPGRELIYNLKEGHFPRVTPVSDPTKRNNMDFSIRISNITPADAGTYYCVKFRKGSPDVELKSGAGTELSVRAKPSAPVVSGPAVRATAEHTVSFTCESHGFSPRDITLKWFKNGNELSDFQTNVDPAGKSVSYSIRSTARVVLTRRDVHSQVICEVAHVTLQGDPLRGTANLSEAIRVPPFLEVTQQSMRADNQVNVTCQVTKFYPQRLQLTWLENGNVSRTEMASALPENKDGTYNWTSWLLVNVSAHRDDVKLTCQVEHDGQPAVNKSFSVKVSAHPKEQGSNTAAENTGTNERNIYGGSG
protocol-description: SPR, Ab captured, ECD-His analyte
Items are presented alongside their recorded pKd.
Reminder that pKd means the negative base-10 logarithm of the concentration expressed in mol/L.

| binder | attribute-measured | value-reported |
| --- | --- | --- |
| Antibody A6 (antibody, human IgG1, kappa, L234A L235A, V domains shown) VH: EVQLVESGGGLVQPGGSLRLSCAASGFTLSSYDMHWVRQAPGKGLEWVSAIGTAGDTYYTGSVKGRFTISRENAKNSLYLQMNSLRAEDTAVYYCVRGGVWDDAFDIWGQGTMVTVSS VL: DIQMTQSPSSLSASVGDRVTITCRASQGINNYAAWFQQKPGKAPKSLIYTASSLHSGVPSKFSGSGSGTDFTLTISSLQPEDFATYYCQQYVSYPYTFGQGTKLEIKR | pKd | 6.44 |
| Antibody A15 (antibody, human IgG1, kappa, L234A L235A, V domains shown) VH: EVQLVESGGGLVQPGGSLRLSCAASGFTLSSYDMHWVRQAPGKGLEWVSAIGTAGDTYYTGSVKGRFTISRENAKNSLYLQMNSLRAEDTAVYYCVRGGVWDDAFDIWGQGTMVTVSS VL: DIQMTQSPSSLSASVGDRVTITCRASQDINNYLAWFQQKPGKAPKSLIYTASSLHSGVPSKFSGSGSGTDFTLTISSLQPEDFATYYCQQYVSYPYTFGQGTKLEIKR | pKd | 6.81 |
| Antibody A9 (antibody, human IgG1, kappa, L234A L235A, V domains shown) VH: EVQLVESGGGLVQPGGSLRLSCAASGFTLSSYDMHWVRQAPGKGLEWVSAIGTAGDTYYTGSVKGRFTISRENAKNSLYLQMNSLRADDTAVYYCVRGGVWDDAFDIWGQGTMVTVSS VL: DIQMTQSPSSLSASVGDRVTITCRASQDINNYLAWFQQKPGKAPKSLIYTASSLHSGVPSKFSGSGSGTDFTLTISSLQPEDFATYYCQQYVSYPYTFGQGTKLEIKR | pKd | 6.81 |

Give the reported value of pKd for this record: Antibody A8 (antibody, human IgG1, kappa, L234A L235A, V domains shown) VH: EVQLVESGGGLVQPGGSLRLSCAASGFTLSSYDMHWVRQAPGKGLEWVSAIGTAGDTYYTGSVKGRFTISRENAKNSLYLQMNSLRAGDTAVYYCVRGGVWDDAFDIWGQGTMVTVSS VL: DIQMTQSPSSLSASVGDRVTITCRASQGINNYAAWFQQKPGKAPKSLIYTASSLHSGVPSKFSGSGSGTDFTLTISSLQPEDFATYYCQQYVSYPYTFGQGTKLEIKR
6.46

Output measured pKd for this item: Antibody A16 (antibody, human IgG1, kappa, L234A L235A, V domains shown) VH: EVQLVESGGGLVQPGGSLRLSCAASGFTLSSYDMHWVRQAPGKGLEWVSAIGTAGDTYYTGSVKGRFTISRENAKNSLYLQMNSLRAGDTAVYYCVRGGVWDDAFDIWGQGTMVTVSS VL: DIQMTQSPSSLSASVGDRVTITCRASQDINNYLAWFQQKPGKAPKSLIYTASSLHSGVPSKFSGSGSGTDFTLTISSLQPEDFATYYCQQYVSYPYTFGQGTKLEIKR
6.82
